Just for reference, patent US8486885B2 is where these values come from.

Biological target: UniProt P30556
Sequence (P30556 whole entry): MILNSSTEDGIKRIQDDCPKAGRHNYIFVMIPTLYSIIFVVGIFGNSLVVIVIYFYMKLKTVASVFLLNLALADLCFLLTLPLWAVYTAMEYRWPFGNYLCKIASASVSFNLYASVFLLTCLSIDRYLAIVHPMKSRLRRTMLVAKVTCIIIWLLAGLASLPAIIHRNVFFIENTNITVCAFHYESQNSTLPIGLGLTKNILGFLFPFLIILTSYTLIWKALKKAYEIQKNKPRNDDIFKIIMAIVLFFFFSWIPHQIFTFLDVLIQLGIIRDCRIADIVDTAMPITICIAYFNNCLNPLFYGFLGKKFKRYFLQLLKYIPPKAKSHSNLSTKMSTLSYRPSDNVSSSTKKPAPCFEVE
Sequence (P32121 whole entry partner): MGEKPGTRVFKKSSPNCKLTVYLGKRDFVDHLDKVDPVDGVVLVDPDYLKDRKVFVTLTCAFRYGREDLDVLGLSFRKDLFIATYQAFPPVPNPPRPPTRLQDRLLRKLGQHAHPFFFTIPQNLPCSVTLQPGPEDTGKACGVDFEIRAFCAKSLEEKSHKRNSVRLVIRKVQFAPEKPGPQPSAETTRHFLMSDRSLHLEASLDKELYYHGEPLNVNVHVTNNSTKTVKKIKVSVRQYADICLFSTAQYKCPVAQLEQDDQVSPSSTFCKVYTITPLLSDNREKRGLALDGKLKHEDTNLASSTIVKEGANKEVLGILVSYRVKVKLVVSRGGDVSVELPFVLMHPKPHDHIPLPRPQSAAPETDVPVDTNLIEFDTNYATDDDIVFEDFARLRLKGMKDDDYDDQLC
Assay: PathHunter β-arrestin-2 recruitment assay, human AT1R
Type: cell-based
Conditions: PathHunter β-arrestin HEK293 cells
Non-standard residues stand in square brackets, D forms with d. Residues, ends and D or L forms follow the SMILES beside them. Sar = CNCC(=O)O
Below, each entry is listed with its recorded human AT1R b-arrestin2 Max (%).
Give just the numeric value; % need not be written.

Q: human AT1R b-arrestin2 Max (%) lookup needed for CNCC(=O)N[C@@H](CCCNC(=N)N)C(=O)N[C@H](C(=O)N[C@@H](Cc1ccc(O)cc1)C(=O)N[C@@H](CCCNC(=N)N)C(=O)N[C@@H](Cc1c[nH]cn1)C(=O)N1CCC[C@H]1C(N)=O)C(C)C [SEQ ID NO:45, Sar-Arg-Val-Tyr-Arg-His-Pro-NH2] (H-[Sar]RVYRHP-NH2; N-terminus assumed) , thanks.
Ans: 53.3

Q: Okay, and `CC[C@H](C)[C@H](NC(=O)[C@H](Cc1ccc(O)cc1)NC(=O)[C@@H](NC(=O)[C@H](CCCNC(=N)N)NC(=O)[C@@H](C)NC)C(C)C)C(=O)N[C@@H](Cc1c[nH]cn1)C(=O)N1CCC[C@H]1C(=O)N[C@@H](C)C(=O)O` ?
Ans: 80.5

Q: Okay, and `CNCC(=O)N[C@@H](CCCNC(=N)N)C(=O)N[C@H](C(=O)N[C@@H](Cc1ccc(O)cc1)C(=O)N[C@@H](Cc1ccccc1)C(=O)N[C@@H](Cc1c[nH]cn1)C(=O)N1CCC[C@H]1C(N)=O)C(C)C` ?
Ans: 30.1
